System: OVCAR-3 ovarian
METHOD: NCI tumour cell line growth inhibition, 384-well format
OBSERVED PROPERTY: TGI (µM)
I only need the number, in µM, no unit after it.

COc1cccc2c1ccc1nc3cccc(C(=O)N[C@H](C)CN(C)C)c3nc12 :: 0.292
CC1(N)CCN(c2cccnc2NC(=O)c2nc(-c3ncccc3C(F)(F)F)cnc2N)CC1 :: 44.5

# evaluate next
Inquiry: Fill in: TGI of `CNC(=O)c1cccc2cc(Oc3ccnc4cc(OCC5(N)CC5)c(OC)cc34)ccc12` is ___
Reply text: 5.94

Origin of the recorded values: PubChem BioAssay (NCI)
